Tested on: HIV-1RF
assay-text: Post-exposure assay: compounds added after HIV-1 infection of CEM-SS cells, cell viability
Type: cell-based
experimental-context: Human immunodeficiency virus 1, CEM-SS, 72 h
# Lookup of reported EC50 keyed by entry
reported-property: EC50

1) Cc1ccnc2c1NC(=O)c1cccnc1N2C1CC1    0.2 µM
2) CC(C)(C)NC(=O)[C@@H]1C[C@@H]2CCCC[C@@H]2CN1C[C@@H](O)[C@H](Cc1ccccc1)NC(=O)[C@H](CC(N)=O)NC(=O)c1ccc2ccccc2n1    0.01 µM

###

assayed-target: CYP1A2 (Homo sapiens (Human))
Sequence (P05177 whole entry): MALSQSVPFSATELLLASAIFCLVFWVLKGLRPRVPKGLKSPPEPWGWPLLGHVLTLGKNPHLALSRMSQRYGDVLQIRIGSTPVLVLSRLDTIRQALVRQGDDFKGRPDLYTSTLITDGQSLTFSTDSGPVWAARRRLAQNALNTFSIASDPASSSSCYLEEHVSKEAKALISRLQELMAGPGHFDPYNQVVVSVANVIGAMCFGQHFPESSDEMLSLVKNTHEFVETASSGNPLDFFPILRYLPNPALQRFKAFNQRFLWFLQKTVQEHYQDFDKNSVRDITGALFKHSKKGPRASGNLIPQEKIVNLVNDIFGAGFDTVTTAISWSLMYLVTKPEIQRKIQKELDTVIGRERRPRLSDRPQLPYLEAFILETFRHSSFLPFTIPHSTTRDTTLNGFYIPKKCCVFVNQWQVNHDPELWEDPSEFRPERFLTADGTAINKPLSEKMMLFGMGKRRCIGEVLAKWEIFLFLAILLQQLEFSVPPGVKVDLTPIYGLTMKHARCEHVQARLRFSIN
assay-text: CYP450 inhibition in human liver microsomes: CYP1A2
reported-property: IC50 (µM)

1) COC(=O)N[C@H](C(=O)N[C@@H](Cc1ccccc1)[C@@H](O)CN(Cc1ccc(-c2ccccn2)cc1)NC(=O)[C@@H](NC(=O)OC)C(C)(C)C)C(C)(C)C [Atazanavir, reference compound]    20.6

###

# Lookup of reported pEC50 keyed by entry
System: HIV-1BaL
assay-text: HIV-1 p24 levels after infection of fresh human monocyte/macrophages
Format: cell-based
experimental-context: seven days, p24; read-out: Monocyte/HIV-1BaL EC50
pEC50: −log10 of the molar value.
reported-property: pEC50

1) COCCOCCOCCOCCOCCOCCOCCNc1ccc(S(=O)(=O)N(CC(C)C)CC(O)[C@H](Cc2ccccc2)NC(=O)O[C@H]2CO[C@H]3OCC[C@H]32)cc1 (some centres unmarked)    6.24
2) COCCOCCOCCOCCOCCOCCOC(=O)NC(C(=O)NC(Cc1ccccc1)C(O)CN(Cc1ccc(-c2ccccn2)cc1)NC(=O)C(NC(=O)OC)C(C)(C)C)C(C)(C)C (centres unmarked)    7.36
3) COCCOCCOCCOCCOCCOC(=O)NC(C(=O)NC(Cc1ccccc1)C(O)CN(Cc1ccc(-c2ccccn2)cc1)NC(=O)C(NC(=O)OC)C(C)(C)C)C(C)(C)C (centres unmarked)    7.25
4) COCCOCCOCCOc1ccc(C[C@H](NC(=O)O[C@H]2CO[C@H]3OCC[C@H]32)C(O)CN(CC(C)C)S(=O)(=O)c2ccc(N)cc2)cc1 (some centres unmarked)    5.99
5) COCCOCCOCCOCCOCCNc1ccc(S(=O)(=O)N(CC(C)C)CC(O)[C@H](Cc2ccccc2)NC(=O)O[C@H]2CO[C@H]3OCC[C@H]32)cc1 (some centres unmarked)    6.52

###

assay-text: Metabolic stability in human liver microsomes
experimental-context: both, human, pooled human liver microsomes, pH 7.4, t1/2, human liver microsomes
reported-property: half-life at 3 μM (min)

1. COCCOCCOCCOC(=O)NC(C(=O)NC(Cc1ccccc1)C(O)CN(Cc1ccc(-c2ccccn2)cc1)NC(=O)C(NC(=O)OC)C(C)(C)C)C(C)(C)C (stereo not shown)    5.58

###

Tested on: human plasma proteins
assay-text: Plasma protein binding by equilibrium dialysis, human plasma
Format: in vitro ADME
experimental-context: human plasma, 5 μM, fraction unbound
# Lookup of reported Plasma Protein Binding Fu ± SD keyed by entry
reported-property: Plasma Protein Binding Fu ± SD

1. COCCOCCOCCNc1ccc(S(=O)(=O)N(CC(C)C)CC(O)[C@H](Cc2ccccc2)NC(=O)O[C@H]2CO[C@H]3OCC[C@H]32)cc1 (stereo partly shown)    0.236
2. CCC[C@@]1(CCc2ccccc2)CC(O)=C([C@H](CC)c2cccc(N(CCOCCOCCOCCOCCOCCOCCOC)S(=O)(=O)c3ccc(C(F)(F)F)cn3)c2)C(=O)O1 [mPEG7-amide-Tipranavir]    0.029
3. COCCOCCOCCOCCOCCOCCOCCNc1ccc(S(=O)(=O)N(CC(C)C)CC(O)[C@H](Cc2ccccc2)NC(=O)O[C@H]2CO[C@H]3OCC[C@H]32)cc1 (stereo partly shown)    0.364
4. CCCC1(CCc2ccccc2)CC(O)=C(C(CC)c2cccc(N(CCOCCOCCOC)S(=O)(=O)c3ccc(C(F)(F)F)cn3)c2)C(=O)O1 (stereo not shown) [mPEG3-amide-Tipranavir]    0.014
5. COCCOCCOCCOCCOCCOCCOC(=O)N[C@@H](C(=O)NC(Cc1ccccc1)[C@@H](O)CN(Cc1ccc(-c2ccccn2)cc1)NC(=O)[C@H](NC(=O)OCCOCCOCCOCCOCCOCCOC)C(C)(C)C)C(C)(C)C (stereo partly shown)    0.868
6. CCC(C1=C(O)CC(CCCNC(=O)OCCOCCOCCOC)(CCc2ccccc2)OC1=O)c1cccc(NS(=O)(=O)c2ccc(C(F)(F)F)cn2)c1 (mixture of isomers)    0.0292
7. COCCOCCOCCOCCOCCOCCOCCOc1ccc(C[C@H](NC(=O)O[C@H]2CO[C@H]3OCC[C@H]32)C(O)CN(CC(C)C)S(=O)(=O)c2ccc(N)cc2)cc1 (stereo partly shown)    0.314
8. COCCOCCOCCOCCOCCNc1ccc(S(=O)(=O)N(CC(C)C)CC(O)[C@H](Cc2ccccc2)NC(=O)O[C@H]2CO[C@H]3OCC[C@H]32)cc1 (stereo partly shown)    0.338
9. CCC(C1=C(O)CC(CCCNC(=O)OCCOCCOCCOCCOCCOC)(CCc2ccccc2)OC1=O)c1cccc(NS(=O)(=O)c2ccc(C(F)(F)F)cn2)c1 (mixture of isomers)    0.0304
